Test system: 786-0 renal
TEST_DETAILS: NCI-60 one-dose screen, 48 h
ASSAY_CONTEXT: 10 µM unless noted
This is part of a sample that, as a whole, favours compounds with a hit. Of some 83,000 tested, about 20% had one in any assay. Activity calls are given as the source filed them. How the source made its calls: active means growth percent below 10; inactive means the rest.
Labels: label 1 for active, label 0 for inactive

SMILES_CODE | GROUP
O=C(Nc1cnc(Nc2ccc(N3CCOCC3)nc2)nc1Oc1ccc(C(F)(F)F)cc1)c1ccncc1 | label 0
COc1ccccc1N(C(C)=O)C1=C(Cl)C(=O)c2ccccc2C1=O | label 0
CC1=C(C(=O)Nc2nc(-c3ccc(Cl)cc3)cs2)[C@H](c2ccc(O)cc2)NC(=O)N1 | label 0
CCOC(=O)c1[nH]c2c(c1C)-c1[nH]c(=O)c(S(=O)(=O)c3ccccc3)cc1SC2 | label 0
C[C@]1(O)CC(=O)[C@]2(O)C3=C(C=C[C@]2(O)C1)C(=O)c1c(O)cccc1C3=O | label 1
CCCCNC(=O)c1cc([N+](=O)[O-])cc(C2CCCCC2)c1O | label 0
C=CCC(CCCC)(C(=O)OCC)C(=O)OCC | label 0
O=C(/C=C(O)/C=C/c1cccc2[nH]ccc12)/C=C/c1cccc2[nH]ccc12 | label 0
COc1cnc2c(c1)C(=O)c1c-2n(CCCCl)c(=O)c2ccncc12 | label 0
O=C1C(Nc2ccccn2)=C(I)C(=O)c2ncccc21 | label 1
CCCCCCCCCCCCCOC(=O)c1c(C)[nH]c(/C=C2\N=C(c3ccc[nH]3)C=C2OC)c1C | label 0
O=[N+]([O-])c1ccc(-c2cn3nc(-c4c[nH]c5ccccc45)sc3n2)cc1 | label 0
N#C/C(=C\c1ccc(-c2cccc(C(F)(F)F)c2)o1)c1ccccc1 | label 0
O=C(CSc1nnc(-c2cc(-c3ccccc3)nc3ccccc23)n1-c1ccccc1)Nc1ccc(C(=O)/C=C/c2ccc(Cl)cc2)cc1 | label 0
CC1=C2[C@@H](CC1)[C@]1(C)O[C@@](c3ccccc3)(C[C@H]1OC(=O)CO)[C@H]2OC(=O)/C=C/c1ccccc1 | label 0
